- System: PC-3
- Experimental details: NCI tumour cell line growth inhibition, 48 h
Active and inactive are the calls of the source. Rule as the data show it: active = GI50 up to about 1.1 µM and inactive = higher.

| Smiles string | GI50 |
| --- | --- |
| COc1cc(NP(=O)(Oc2ccccc2)Oc2ccccc2)ccc1Nc1c2ccccc2nc2c1[nH]c1ccccc12 | 4.41 µM (inactive) |
| O=C1OC[C@@H]2[C@@H](O)CCCCCN12 | > 100 µM (inactive) |
| CSc1ccc(-c2cc(-c3nc4ccccc4[nH]3)no2)cc1 | 32.6 µM (inactive) |

###

- Test system: OVCAR-5
- Experimental details: NCI tumour cell line growth inhibition, 48 h
Calls of active or inactive are those of the source. Rule as the data show it: active = GI50 up to about 1.1 µM and inactive = higher.
# maps each entry to its GI50

| Molecule | GI50 |
| --- | --- |
| CN(C)CCNc1ccc(CO)c2sc3ccc(O)cc3c(=O)c12 | 5.26 µM (inactive) |
| COC(=O)C1=C(O)C(C(=O)OC)[C@@]2(O)[C@@H](C(=O)OC)C(c3ccc(OC(=O)/C(=C/c4ccccc4)c4ccccc4)cc3)C[C@@H]1[C@@H]2C(=O)OC (stereo not given in full) | 80.4 µM (inactive) |
| NC(=O)N1N=C2c3ccccc3CC[C@@H]2C1c1ccccc1 (stereo not given in full) | > 100 µM (inactive) |
| COc1ccc(/C=C2\CN(C)Cc3c2nc(N)nc3-c2ccc(OC)cc2)cc1 | > 100 µM (inactive) |
| OCC(O)C(O)C(C=NNc1ncnc2ccc(Br)cc12)=NNc1ncnc2ccc(Br)cc12 (stereo not given) | 3.58 µM (inactive) |

###

# maps each entry to its GI50
- Tested on: SF-539
- Experimental details: NCI tumour cell line growth inhibition, 48 h
Activity calls are given as the source filed them. No stated cut-off is given here; in the data, active = GI50 up to about 1.1 µM and inactive = higher.

| Molecule | GI50 |
| --- | --- |
| CSc1c(C(=O)Nc2ccc(C)cc2)c(N)nn1-c1ccccc1 | 35.8 µM (inactive) |
| Oc1ccc(N=C2CCC(=C(c3ccccc3)c3ccc(Nc4ccc(O)cc4)cc3)CC2)cc1 | 46.1 µM (inactive) |
| CC(C)Oc1c(-c2c(OC(C)C)c(=O)c2=O)c(=O)c1=O | > 65.8 µM (inactive) |
| Cc1c2c(OCC(O)CN3CCN(c4ccccc4)CC3)nn(C)c(=O)c2c(C)n1-c1ccccc1 (stereo unspecified) | 19.2 µM (inactive) |
| O=C1CC2C(=O)C1C(C(=O)O)C2C(=O)O (stereo unspecified) | > 100 µM (inactive) |
| NCCC1([N+](=O)[O-])C=CN=CC1 (stereo unspecified) | > 100 µM (inactive) |

###

- Tested on: DMS-114
- Experimental details: NCI tumour cell line growth inhibition, 48 h
The source made the active and inactive calls. No stated cut-off is given here; in the data, active = GI50 up to about 1.1 µM and inactive = higher.
Outcome codes: active, inactive

| Compound | Label |
| --- | --- |
| CC1OC(CC(=O)O)Cc2c(O)c3c(c(O)c21)C(=O)C=C(C1=CC(=O)c2c(O)c4c(c(O)c2C1=O)CC(CC(=O)O)OC4C)C3=O (stereo not given) | inactive |
| CCCCCCCCCCCCCCCCCCOCC(COP(=O)([O-])OCC[N+](C)(C)C)OC (stereo not given) | inactive |
| O=CN/C=C/c1ccccc1O | inactive |
| CCCC1(CC(=O)O)OCCc2c1[nH]c1ccccc21 (stereo not given) | inactive |
| C#Cc1ccccc1C(=O)OC | inactive |
| O=[N+]([O-])c1ccc(C2CC(c3ccc(NCc4nc5ccccc5[nH]4)cc3)=NO2)cc1 (stereo not given) | inactive |
| CCCCCCCCCCCOC(=S)NC(C)C | inactive |
| C[Si](C)(C)c1ccc(CC2(Cc3ccc([Si](C)(C)C)cc3)CCNC2)cc1 | inactive |
| COc1ccc(/C=C/c2cc(OC)c(O[Si](C)(C)C(C)(C)C)c(OC)c2)cc1 | inactive |
| CCC1=C(C[C@H]2NCCc3cc(OC)c(OC)cc32)C[C@H]2c3cc(OC)c(OC)cc3CCN2C1 | active |
